test-system: JAK2 (Homo sapiens)
Construct: host or cells: baculovirus expression system
protocol-summary: Recombinant Human JAK2 Kinase Assay (TRF)
Type: biochemical
condition: JAK2 kinase inhibition, 0.2 μM ATP; read-out: JAK2 Potency
Could you please report measured IC50 for the items listed next?

Consider the compound shown here: COc1ccc(-c2ccc3cnc(Nc4ccc(N5CCOCC5)nc4)nn23)cn1 What is its recorded IC50? < 100 nM

Next: N#CCCc1cccc(-c2ccc3cnc(Nc4ccc5c(c4)CCC(N4CCOCC4)CC5)nn23)c1 (stereo not shown) < 100 nM

Next: CN(c1ccccc1-c1ccc2cnc(Nc3ccc4c(cnn4CCN4CCOCC4)c3)nn12)S(C)(=O)=O < 100 nM

Next: CS(=O)(=O)c1cccc(-c2ccc3cnc(Nc4ccc(C5CCNCC5)nc4)nn23)c1 < 100 nM

Next: COc1cc(C2(C#N)CCC(O)CC2)ccc1Nc1ncc2ccc(-c3ccccc3N(C)S(C)(=O)=O)n2n1 (stereo not shown) 100 to 1000 nM

Next: COc1cc(C2CCN(C(=O)CN(C)C)CC2)ccc1Nc1ncc2ccc(-c3ccccc3N(C)S(C)(=O)=O)n2n1 1000 to 10000 nM

Next: CN1CCN(c2cccc(Nc3ncc4ccc(-c5cccc(NCCS(C)(=O)=O)c5)n4n3)c2)CC1 < 100 nM

Next: COc1ccccc1-c1ccc2cnc(Nc3ccc4nc(CO)[nH]c4c3)nn12 < 100 nM

Next: COc1cc(C2CCN(CC(N)=O)CC2)ccc1Nc1ncc2c(C)cc(-c3ccccc3OC)n2n1 100 to 1000 nM

Next: COc1cc2c(cc1Nc1ncc3ccc(-c4cccc5c4OCC5)n3n1)CCN(C[C@@H](C)O)CC2 100 to 1000 nM

Next: CN1CCN(c2ccc(Nc3ncc4c(-c5ccc(F)cc5)ccn4n3)cc2)CC1 > 10000 nM

Next: COc1cc(N2CCC(N3CCOCC3)CC2)ccc1Nc1ncc2ccc(-c3cccc(CCC#N)c3)n2n1 < 100 nM

Next: CN1CCN(c2ccc(Nc3ncc4ccc(-c5ccc(N)nc5)n4n3)cc2)CC1 < 100 nM

---

test-system: JAK2 (Homo sapiens, UniProt O60674)
Construct: host or cells: baculovirus expression system
Sequence (O60674 whole entry): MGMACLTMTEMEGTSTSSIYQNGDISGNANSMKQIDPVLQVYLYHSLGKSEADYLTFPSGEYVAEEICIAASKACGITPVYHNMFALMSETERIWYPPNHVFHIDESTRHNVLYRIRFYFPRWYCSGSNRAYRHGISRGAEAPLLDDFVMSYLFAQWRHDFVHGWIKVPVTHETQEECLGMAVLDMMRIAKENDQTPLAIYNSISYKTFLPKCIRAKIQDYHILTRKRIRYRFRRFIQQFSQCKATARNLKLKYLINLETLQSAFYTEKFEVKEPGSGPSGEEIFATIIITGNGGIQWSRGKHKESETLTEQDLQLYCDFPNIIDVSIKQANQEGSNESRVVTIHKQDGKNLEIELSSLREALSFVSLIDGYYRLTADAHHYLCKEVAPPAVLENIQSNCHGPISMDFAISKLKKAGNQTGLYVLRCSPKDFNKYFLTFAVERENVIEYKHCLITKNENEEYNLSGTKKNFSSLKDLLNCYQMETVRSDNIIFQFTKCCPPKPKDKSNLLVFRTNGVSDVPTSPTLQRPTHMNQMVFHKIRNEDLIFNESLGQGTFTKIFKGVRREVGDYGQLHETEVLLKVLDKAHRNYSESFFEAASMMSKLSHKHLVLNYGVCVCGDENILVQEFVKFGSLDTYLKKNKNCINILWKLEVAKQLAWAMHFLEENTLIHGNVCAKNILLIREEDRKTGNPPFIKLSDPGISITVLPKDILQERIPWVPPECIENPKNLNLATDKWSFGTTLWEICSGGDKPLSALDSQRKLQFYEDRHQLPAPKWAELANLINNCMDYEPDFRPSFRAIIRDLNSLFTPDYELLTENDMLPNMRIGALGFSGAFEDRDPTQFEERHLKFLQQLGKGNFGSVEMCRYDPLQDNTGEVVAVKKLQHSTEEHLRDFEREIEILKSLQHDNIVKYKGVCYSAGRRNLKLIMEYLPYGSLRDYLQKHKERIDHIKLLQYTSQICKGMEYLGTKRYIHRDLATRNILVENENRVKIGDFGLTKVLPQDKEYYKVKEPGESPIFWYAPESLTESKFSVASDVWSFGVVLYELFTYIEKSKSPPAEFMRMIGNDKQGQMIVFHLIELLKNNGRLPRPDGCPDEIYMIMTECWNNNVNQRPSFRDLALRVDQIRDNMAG
protocol-summary: Recombinant Human JAK2 Kinase Assay (TRF)
Format: biochemical
condition: JAK2 kinase inhibition, 0.2 μM ATP; read-out: JAK2 Potency
Could you please report measured IC50 for the items listed next?

Consider the compound shown here: COc1cc(N2CCC(N3CCOCC3)CC2)ccc1Nc1ncc2ccc(-c3cccnc3)n2n1 What is its recorded IC50? < 0.1 µM

Next: COc1cc(C2CCN(CCO)CC2)ccc1Nc1ncc2ccc(-c3cccc4c3OCC4)n2n1 0.1 to 1 µM

Next: COc1ccc(-c2ccc3cnc(Nc4cccc(C#N)c4)nn23)cn1 < 0.1 µM

Next: COc1cc(N2CCC(N3CCOCC3)CC2)ccc1Nc1ncc2ccc(-c3ccccc3CS(C)(=O)=O)n2n1 1 to 10 µM

Next: CN1CCOCc2cc(Nc3ncc4ccc(-c5ccccc5N(C)S(C)(=O)=O)n4n3)ccc21 < 0.1 µM

Next: COc1cc(C2CCCN(C)C2)ccc1Nc1ncc2ccc(-c3ccccc3N(C)S(C)(=O)=O)n2n1 (stereo not drawn) 0.1 to 1 µM

Next: N#CCCc1cccc(-c2ccc3cnc(Nc4ccc(N5CCOCC5)cc4)nn23)c1 < 0.1 µM

Next: COc1ccccc1-c1ccc2cnc(Nc3cn(CC(=O)N4CCOCC4)cn3)nn12 < 0.1 µM

Next: COc1ccc(-c2ccc3cnc(Nc4ccc(C5CCN(C)CC5)c(OC)c4)nn23)cn1 < 0.1 µM

Next: CS(=O)(=O)c1cccc(-c2ccc3cnc(Nc4ccc(C5CN(CC(N)=O)C5)cc4)nn23)c1 < 0.1 µM

Next: COc1cc(C2CCN(C[C@H](O)CO)CC2)ccc1Nc1ncc2ccc(-c3ccccc3N(C)S(C)(=O)=O)n2n1 0.1 to 1 µM

Next: COc1ccccc1-c1ccc2cnc(Nc3ccc(C4CCNCC4)nc3)nn12 < 0.1 µM

Next: Clc1ncccc1-c1ccc2cnc(Nc3ccc(N4CCOCC4)cc3)nn12 < 0.1 µM

Next: CN(c1cccc(-c2ccc3cnc(Nc4ccc(C5CCN(CC(N)=O)CC5)cc4)nn23)c1)S(C)(=O)=O < 0.1 µM

Next: COc1cc(CN2CCN(CC(O)CF)CC2)ccc1Nc1ncc2ccc(-c3ccccc3OC)n2n1 (stereo not drawn) 0.1 to 1 µM

Next: COc1cc(N2CCC(N3CCN(C)CC3)CC2)ccc1Nc1ncc2ccc(-c3cccc(S(=O)(=O)NC(C)(C)C)c3)n2n1 < 0.1 µM

Next: CC(C)(C)NS(=O)(=O)c1cccc(-c2ccc3cnc(Nc4ccc5c(c4)CCN(CC(N)=O)C5)nn23)c1 < 0.1 µM

Next: COc1cc(C2CCCN(CC(N)=O)C2)ccc1Nc1ncc2ccc(-c3ccccc3OC)n2n1 (racemic) < 0.1 µM

Next: Cn1cnc2ccc(Nc3ncc4ccc(-c5ccc(S(C)(=O)=O)cc5)n4n3)cc21 < 0.1 µM

Next: CN1CCN(c2ccc(Nc3ncc4ccc(Sc5ccncc5)n4n3)cc2)CC1 < 0.1 µM

Next: COc1ccccc1-c1ccc2cnc(Nc3cc4c(cc3F)CCC(=O)N4)nn12 < 0.1 µM
